Let's look at some IC50 data for Fibroblast growth factor receptor 4 (Homo sapiens, UniProt P22455) that I collected from the literature.
experimental readout: IC50 (nM)

                                        smi                             tested_target  readout_relation  result_value
0  C=CC(=O)Nc1ccccc1-c1cc2c(cn1)cc(-c1c(Cl)c(OC)cc(OC)c1Cl)c(=O)n2C(C)C  Fibroblast growth factor receptor 4 (Homo sapiens, UniProt P22455)                 <            10
1  C=CC(=O)N1CC[C@H](c2cc(-c3cc4cc(Cl)cc(OC)c4s3)c3c(N)ncnn23)C1  Fibroblast growth factor receptor 4 (Homo sapiens, UniProt P22455)                 =           0.7
2  COc1nc(OC)c(F)c(Cc2c[nH]c3ncc(-c4cnn(CCO)c4)cc23)c1F  Fibroblast growth factor receptor 4 (Homo sapiens, UniProt P22455)                 =           1.7
3  CCC(=O)N1CC[C@H](c2cc(-c3cc4cc(C)cc(OC)c4s3)c3c(N)ncnn23)C1  Fibroblast growth factor receptor 4 (Homo sapiens, UniProt P22455)                 =            67
4  COc1cc(OC)c(F)c(Cc2c[nH]c3ncc(-c4cnn(C5CCN(CCO)CC5)c4)cc23)c1F  Fibroblast growth factor receptor 4 (Homo sapiens, UniProt P22455)                 =          16.1
